Molecular target: FBLIM1
Test: pooled miR-30 sensor sort-seq; sequence = guide strand; further: reference of the scale not given here
Details: shRNA
Each entry below carries its reported sensor-assay potency score (higher = more potent).
PROPERTY_LABEL: sensor-assay potency score (higher = more potent)

{"SEQUENCE_INPUT": "TTTCTCAACAGGTTCTGCCGGG", "RESULT_VALUE": 0.497}
{"SEQUENCE_INPUT": "TTTCATGGAAGTTTCTTCCCAT", "RESULT_VALUE": 0.731}
{"SEQUENCE_INPUT": "TTCTGGTAGAAGCTCTGCCCAG", "RESULT_VALUE": -1.24}
{"SEQUENCE_INPUT": "TCGACAGACAGGAGGATCCTGC", "RESULT_VALUE": -0.78}

###

Target: ROCK2
Assay: pooled miR-30 sensor sort-seq; sequence = guide strand
Conditions: shRNA
Each entry below carries its reported sensor-assay potency score (higher = more potent).
PROPERTY_LABEL: sensor-assay potency score (higher = more potent)

{"SEQUENCE_INPUT": "TAGATGTCCATGTTTATCCAAG", "RESULT_VALUE": -1.07}
{"SEQUENCE_INPUT": "TTTTCTGACATTTTTAGTGTGT", "RESULT_VALUE": 0.278}
{"SEQUENCE_INPUT": "TTCTGCTTCGAGCTGATCCTGG", "RESULT_VALUE": -0.437}
{"SEQUENCE_INPUT": "TCTATTGTTAGATTCCAGCTGC", "RESULT_VALUE": 0.544}
{"SEQUENCE_INPUT": "TTTATCTGCTAGTCGTGCCTTT", "RESULT_VALUE": 0.209}
{"SEQUENCE_INPUT": "TTTCTAACTGTCTTAATGCTGA", "RESULT_VALUE": -0.42}
{"SEQUENCE_INPUT": "TAAAGCATTGGTTTCATCCAGT", "RESULT_VALUE": 0.0253}
{"SEQUENCE_INPUT": "TAACTTGGCAGTCTCCAGCAGG", "RESULT_VALUE": -1.05}

###

Molecular target: NHP2
Assay: pooled miR-30 sensor sort-seq; sequence = guide strand
Settings: shRNA
Assign fulfilled whenever sensor-assay potency score (higher = more potent) does not fall below -0.5; assign not fulfilled whenever it does.

{"SEQUENCE_INPUT": "TTTGTAGAGCTTCCGCGTGAGG", "TEST_SYSTEM": "NHP2", "GROUP_LABEL": "not fulfilled"}
{"SEQUENCE_INPUT": "TTGACCATTATCACACAGGTGG", "TEST_SYSTEM": "NHP2", "GROUP_LABEL": "fulfilled"}
{"SEQUENCE_INPUT": "TTGACCAGCAGCTCCTGGTAGG", "TEST_SYSTEM": "NHP2", "GROUP_LABEL": "not fulfilled"}
{"SEQUENCE_INPUT": "TTCTGCTTCACCGCTTTCTTGA", "TEST_SYSTEM": "NHP2", "GROUP_LABEL": "not fulfilled"}
{"SEQUENCE_INPUT": "TCTGCTTCTGCTTCACCGCTTT", "TEST_SYSTEM": "NHP2", "GROUP_LABEL": "fulfilled"}
{"SEQUENCE_INPUT": "TTTCTGAACCTCTTTCACCCCG", "TEST_SYSTEM": "NHP2", "GROUP_LABEL": "fulfilled"}
{"SEQUENCE_INPUT": "TAGAGCTTCCGCGTGAGGCGGC", "TEST_SYSTEM": "NHP2", "GROUP_LABEL": "fulfilled"}

###

Biological target: SLC39A3
Assay: pooled miR-30 sensor sort-seq; sequence = guide strand
Settings: shRNA
PROPERTY_LABEL: sensor-assay potency score (higher = more potent)

{"SEQUENCE_INPUT": "TTACCTTTTCCCTCACAGCGGG", "RESULT_VALUE": -0.333}
{"SEQUENCE_INPUT": "AAAATCTGTCTCGATGATCTTC", "RESULT_VALUE": 0.079}
{"SEQUENCE_INPUT": "TACCTTTTCCCTCACAGCGGGC", "RESULT_VALUE": -1.41}
{"SEQUENCE_INPUT": "TAGTCGGTGCTGATGTGGCCGA", "RESULT_VALUE": -1.33}
{"SEQUENCE_INPUT": "TTGCAGAGAGAGAGGATCTTTT", "RESULT_VALUE": -0.914}
{"SEQUENCE_INPUT": "TCAGTGTTGAAAATGCATCAGA", "RESULT_VALUE": -0.941}

###

Each entry below carries its reported sensor-assay potency score (higher = more potent).
Biological target: YJEFN3
Assay: pooled miR-30 sensor sort-seq; sequence = guide strand
Details: shRNA
PROPERTY_LABEL: sensor-assay potency score (higher = more potent)

{"SEQUENCE_INPUT": "TTCGTTAATGAGCTGCACCTCA", "RESULT_VALUE": -0.35}
{"SEQUENCE_INPUT": "TTAATGAGCTGCACCTCAGTGG", "RESULT_VALUE": 0.0127}
{"SEQUENCE_INPUT": "TCATCGGGCACGAACCTGCCGG", "RESULT_VALUE": -1.06}
{"SEQUENCE_INPUT": "TCCATCTTCTCGCACTGGGTGG", "RESULT_VALUE": -1.52}
{"SEQUENCE_INPUT": "TTGAGCGTGGCCAGCGCGCGGG", "RESULT_VALUE": -0.949}
{"SEQUENCE_INPUT": "TAGCATGACCGCACAGCTCCAC", "RESULT_VALUE": -0.593}

###

Target: GLP1R
Assay: pooled miR-30 sensor sort-seq; sequence = guide strand
Conditions: shRNA
Assign t whenever sensor-assay potency score (higher = more potent) does not fall below -0.6; assign f whenever it does.

{"SEQUENCE_INPUT": "TTCCTTGCACATCACATGCCTC", "GROUP_LABEL": "t"}
{"SEQUENCE_INPUT": "TATCCTATTATTTTCCTTGCAC", "GROUP_LABEL": "t"}
{"SEQUENCE_INPUT": "ATGAGCAGAAACACCAGGCGGC", "GROUP_LABEL": "t"}
{"SEQUENCE_INPUT": "TTTGATGTCTGTCTTGCACATG", "GROUP_LABEL": "f"}
{"SEQUENCE_INPUT": "TTGATGAAGACGGACAATGCTC", "GROUP_LABEL": "f"}
{"SEQUENCE_INPUT": "TTATATCCTATTATTTTCCTTG", "GROUP_LABEL": "t"}

###

Each entry below carries its reported sensor-assay potency score (higher = more potent).
Molecular target: STX12
Assay: pooled miR-30 sensor sort-seq; sequence = guide strand
Settings: shRNA
PROPERTY_LABEL: sensor-assay potency score (higher = more potent)

{"SEQUENCE_INPUT": "AAATATCTGATTGACATCCAAA", "RESULT_VALUE": -1.28}
{"SEQUENCE_INPUT": "TACCCTTCTCTGCACAGCCTGG", "RESULT_VALUE": -1.07}
{"SEQUENCE_INPUT": "TCTGATAGTAAGCAGCTCGCTG", "RESULT_VALUE": -0.759}
{"SEQUENCE_INPUT": "TTTAATAAGTTCCAAATCCTGC", "RESULT_VALUE": -0.773}
{"SEQUENCE_INPUT": "TTGTGGAGTGTTGTAACTGTTG", "RESULT_VALUE": -1.19}
{"SEQUENCE_INPUT": "TAGCTTGCTTGAGTCCTGCTTA", "RESULT_VALUE": -0.146}
{"SEQUENCE_INPUT": "TTTTCTGATAGTAAGCAGCTCG", "RESULT_VALUE": 0.207}
{"SEQUENCE_INPUT": "TTTTTGTCTAAAACTATGCATG", "RESULT_VALUE": -0.984}
{"SEQUENCE_INPUT": "TTTTCCTGTAGCTTGCTTGAGT", "RESULT_VALUE": 0.00107}

###

Target: EPB41
Test: pooled miR-30 sensor sort-seq; sequence = guide strand
Conditions: shRNA
Each entry below carries its reported sensor-assay potency score (higher = more potent).
PROPERTY_LABEL: sensor-assay potency score (higher = more potent)

{"SEQUENCE_INPUT": "TTTTTCAGCTCACTGATGCTGG", "RESULT_VALUE": 0.147}
{"SEQUENCE_INPUT": "TTGAACAATTCTGATATCCTAA", "RESULT_VALUE": -0.113}
{"SEQUENCE_INPUT": "TTGACTCTTGTCTAAATCCTCC", "RESULT_VALUE": -0.522}
{"SEQUENCE_INPUT": "ATCTTCTCTGAGTTCTTCCTGA", "RESULT_VALUE": -0.459}
{"SEQUENCE_INPUT": "TAGAATAATCTTGAAAGTCTGA", "RESULT_VALUE": 0.113}
{"SEQUENCE_INPUT": "TTCTGGGTCGTAGTCTCCCAGT", "RESULT_VALUE": -1.42}
{"SEQUENCE_INPUT": "TTAGCTGCTCGGTAACTGGGAA", "RESULT_VALUE": -0.397}
{"SEQUENCE_INPUT": "TAGCTTGCCTGGTCTGAGCTTG", "RESULT_VALUE": -0.0306}
{"SEQUENCE_INPUT": "TTGATCTCCTCTTGACTCTTGT", "RESULT_VALUE": 0.588}
{"SEQUENCE_INPUT": "ATAATTTCTTAGCTGCTCGGTA", "RESULT_VALUE": -0.474}
{"SEQUENCE_INPUT": "TTTACTTCTATTTTGGAGCACT", "RESULT_VALUE": -0.574}
